Data origin: paper PMC4728427

# targetOrTestSystem: Mouse TMEM16A (Mus musculus)
# Construct: expressed in transfected cells; host or cells: HEK-293T
# methodNotes: Time-course of current block analysed by Langmuir formalism (kon, koff), 12.5 μM [Ca2+]i
# Format: cell-based
# settings: Vm 40 mV, read-out: Ki calculated as koff/kon
measurementName: pKi
// field semantics: pKi = negative decimal log of concentration (mol/L)

Ask: Lab note: record pKi of O=C(O)c1c2ccccc2cc2ccccc12 tested on Mouse TMEM16A (Mus musculus).
Reply: 3.98

====

# targetOrTestSystem: Mouse TMEM16A (Mus musculus)
# Construct: expressed in transfected cells; host or cells: HEK-293T
# Sequence (Q8BHY3 1-960): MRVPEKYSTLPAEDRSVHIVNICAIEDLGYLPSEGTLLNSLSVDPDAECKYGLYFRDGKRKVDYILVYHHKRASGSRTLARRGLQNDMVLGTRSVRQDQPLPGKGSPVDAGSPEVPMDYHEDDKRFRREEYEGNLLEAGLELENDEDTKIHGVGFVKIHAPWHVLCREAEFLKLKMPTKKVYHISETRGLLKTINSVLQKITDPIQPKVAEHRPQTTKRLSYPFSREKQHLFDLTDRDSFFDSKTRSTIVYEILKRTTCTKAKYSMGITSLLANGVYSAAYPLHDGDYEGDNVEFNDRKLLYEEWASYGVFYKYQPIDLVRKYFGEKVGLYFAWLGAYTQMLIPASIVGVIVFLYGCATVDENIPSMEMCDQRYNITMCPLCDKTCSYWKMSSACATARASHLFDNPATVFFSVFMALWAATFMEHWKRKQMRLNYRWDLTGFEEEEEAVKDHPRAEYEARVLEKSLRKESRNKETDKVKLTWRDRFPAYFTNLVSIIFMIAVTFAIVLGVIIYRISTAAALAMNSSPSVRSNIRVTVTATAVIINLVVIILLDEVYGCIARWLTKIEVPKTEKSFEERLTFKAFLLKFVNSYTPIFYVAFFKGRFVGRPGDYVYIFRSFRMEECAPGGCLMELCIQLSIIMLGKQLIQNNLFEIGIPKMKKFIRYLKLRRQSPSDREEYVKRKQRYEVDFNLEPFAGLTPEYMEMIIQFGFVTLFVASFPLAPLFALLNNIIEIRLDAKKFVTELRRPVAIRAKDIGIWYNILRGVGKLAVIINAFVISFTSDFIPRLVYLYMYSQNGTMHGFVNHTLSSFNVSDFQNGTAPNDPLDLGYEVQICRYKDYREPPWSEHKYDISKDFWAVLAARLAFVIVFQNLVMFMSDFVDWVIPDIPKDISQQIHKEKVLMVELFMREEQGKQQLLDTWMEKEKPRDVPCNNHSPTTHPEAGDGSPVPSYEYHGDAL
# methodNotes: Whole-cell concentration-jump protocol separating A9C block and activation, 300 nM [Ca2+]i
# Assay type: cell-based
# settings: V m 40 mV, 300 nM [Ca2+]i, [A9C]ext; read-out: EC50 (b) activation
measurementName: pEC50
// field semantics: pEC50 = negative decimal log of concentration (mol/L)

Ask: Identify measured pEC50 associated with O=C(O)c1c2ccccc2cc2ccccc12
Reply: 2.95

====

# targetOrTestSystem: Mouse TMEM16A (Mus musculus, UniProt Q8BHY3)
# Construct: expressed in transfected cells; host or cells: HEK-293T
# Sequence (Q8BHY3 1-960): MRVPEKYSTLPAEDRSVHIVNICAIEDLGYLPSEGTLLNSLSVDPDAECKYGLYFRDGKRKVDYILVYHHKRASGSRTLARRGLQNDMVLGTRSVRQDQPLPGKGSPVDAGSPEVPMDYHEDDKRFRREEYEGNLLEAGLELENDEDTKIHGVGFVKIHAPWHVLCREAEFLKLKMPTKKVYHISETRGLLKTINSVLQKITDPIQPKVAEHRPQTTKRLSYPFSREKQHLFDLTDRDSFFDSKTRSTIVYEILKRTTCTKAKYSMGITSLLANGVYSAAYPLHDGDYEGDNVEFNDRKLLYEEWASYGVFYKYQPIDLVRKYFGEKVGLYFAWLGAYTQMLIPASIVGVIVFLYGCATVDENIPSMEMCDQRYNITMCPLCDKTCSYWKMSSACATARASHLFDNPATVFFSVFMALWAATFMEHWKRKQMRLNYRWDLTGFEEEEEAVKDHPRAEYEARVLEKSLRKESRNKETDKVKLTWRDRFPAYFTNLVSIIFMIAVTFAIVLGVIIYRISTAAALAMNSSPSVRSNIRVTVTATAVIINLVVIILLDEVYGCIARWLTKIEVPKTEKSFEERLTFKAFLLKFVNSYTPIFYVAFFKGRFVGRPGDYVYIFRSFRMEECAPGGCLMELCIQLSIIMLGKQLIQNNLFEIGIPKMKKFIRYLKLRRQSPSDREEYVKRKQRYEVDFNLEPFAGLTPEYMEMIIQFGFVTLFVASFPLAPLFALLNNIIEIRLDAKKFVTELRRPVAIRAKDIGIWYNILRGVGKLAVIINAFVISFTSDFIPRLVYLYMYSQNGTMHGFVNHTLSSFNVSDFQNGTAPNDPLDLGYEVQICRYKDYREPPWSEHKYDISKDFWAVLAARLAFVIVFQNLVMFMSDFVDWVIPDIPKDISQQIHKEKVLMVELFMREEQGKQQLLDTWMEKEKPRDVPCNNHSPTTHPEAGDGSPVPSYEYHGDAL
# methodNotes: Whole-cell concentration-jump protocol separating A9C block and activation, 300 nM [Ca2+]i
# Assay type: cell-based
# settings: V m 10 mV, 300 nM [Ca2+]i, [A9C]ext; read-out: IC50 (a) inhibition
measurementName: pIC50
// field semantics: pIC50 = negative decimal log of concentration (mol/L)

Ask: Identify measured pIC50 associated with O=C(O)c1c2ccccc2cc2ccccc12
Reply: 2.33
